System: CP217
TEST DESCRIPTION: qHTS profiling for inhibitors of Plasmodium falciparum proliferation (AID 504749); also: nearly all actives have a fitted effect of over 60% in size
PARTICULARS: P. falciparum in erythrocytes, SYBR Green DNA, 72 h; series mostly up to 28.7 µM
Results filed as inconclusive are left out. Calls of active or inactive are those of the source. Calls follow the shape of the dose curve; as a rule, active = well fitted inhibition curve with a large enough effect; inconclusive = small, poorly fitted or top-dose-only effect; inactive = flat fitted curve, though single readings scatter.
Outcome codes: 1.0 for active, 0.0 for inactive

| COMPOUND | TARGET DESC | ASSIGNED CLASS |
| --- | --- | --- |
| N[C@H](Cc1ccc(O)c(O)c1)C(=O)O | CP217 | 0.0 |
| C[C@@H]1[C@H](O)[C@@H](C)/C=C/C=C/C=C/C=C/C=C/C=C/C=C/[C@H](O[C@@H]2O[C@H](C)[C@@H](O)[C@H](N)[C@@H]2O)C[C@@H]2O[C@](O)(C[C@@H](O)C[C@@H](O)[C@H](O)CC[C@@H](O)C[C@@H](O)CC(=O)O[C@H]1C)C[C@H](O)[C@H]2C(=O)O | CP217 | 0.0 |
| C[C@@]12C(=O)OC(=O)[C@]1(C)[C@H]1CC[C@@H]2O1 | CP217 | 1.0 |
| CN1C[C@H](C(=O)N[C@]2(C)O[C@@]3(O)C4CCCN4C(=O)[C@H](Cc4ccccc4)N3C2=O)C[C@@H]2c3cccc4[nH]cc(c34)C[C@H]21 (stereo partly drawn) | CP217 | 1.0 |
| CC(/C=C1\SC(=S)N(CC(=O)O)C1=O)=C\c1ccccc1 | CP217 | 0.0 |
| CN1C(=O)CCC1c1cccnc1 (stereo not drawn) | CP217 | 0.0 |
| Oc1ccc(/C=C\c2cc(O)cc(O)c2)cc1 | CP217 | 0.0 |
| COc1ccc(CCNC[C@@H](O)c2ccc(O)cc2)cc1OC | CP217 | 0.0 |

Recorded values, source PubChem BioAssay (NCATS).
